Reference source for all entries: paper PMC2909451

- experimental-target: excitatory amino acid transporters (SLC1A6, EAAT4) (Rattus norvegicus, UniProt O35921)
- Sequence (O35921 1-561): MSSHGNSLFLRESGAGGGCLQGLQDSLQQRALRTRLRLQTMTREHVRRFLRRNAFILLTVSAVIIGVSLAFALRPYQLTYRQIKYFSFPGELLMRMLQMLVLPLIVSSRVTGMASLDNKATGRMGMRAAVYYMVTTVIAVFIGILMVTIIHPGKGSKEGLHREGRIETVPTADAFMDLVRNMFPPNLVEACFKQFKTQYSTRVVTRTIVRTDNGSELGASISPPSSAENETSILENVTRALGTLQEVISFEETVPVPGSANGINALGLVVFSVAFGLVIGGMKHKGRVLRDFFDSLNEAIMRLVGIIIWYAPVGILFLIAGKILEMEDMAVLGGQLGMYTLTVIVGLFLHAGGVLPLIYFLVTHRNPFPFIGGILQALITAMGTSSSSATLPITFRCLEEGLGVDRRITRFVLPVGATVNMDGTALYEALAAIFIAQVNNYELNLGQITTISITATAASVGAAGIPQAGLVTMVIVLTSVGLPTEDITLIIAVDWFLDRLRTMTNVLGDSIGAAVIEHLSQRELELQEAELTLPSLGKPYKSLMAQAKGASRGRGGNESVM
- experiment-summary: EAAT4 cis-inhibition of glutamate uptake in stably transfected HEK 293 cells
- Format: cell-based
- measurement-context: Ki, inhibitor concentration range 0-50 μM
measurement-label: Ki (µM)

a = N[C@@H](CC(=O)O)C(=O)O [L-Aspartic acid]
b = N[C@H](CC(=O)O)C(=O)O [D-Aspartic acid]
Prompt line: Field: lower Ki | Options: a / b Pick one and reply with its label.
Response line: a
(a: 1.88 µM, b: 8.95 µM)
